System: female rat uterus
Assay: Antiestrogenic effect on uterine wet weight, immature female Sprague-Dawley rats (Example 8)
Format: in vivo
Details: Table 2: 50 μmol/kg + E-2 (2 × 10 μg/rat)
RECORDED ENDPOINT: Uterine Wet Weight (% body wt)
One number for each entry, in % body wt.

| STRUCTURE | UNIT TAG | ASSAY VALUE |
| --- | --- | --- |
| Cc1cc2c(cc1Cl)oc1cc(Cl)cc(Cl)c12 | % body wt | 0.181 |

Go through the list and state Uterine Wet Weight for each entry.
1. Cc1cc(Cl)cc2c1oc1c(Cl)c(Cl)c(Cl)cc12
2. Cc1cc(Cl)cc2c1oc1cc(Cl)c(Cl)cc12
3. Cc1cc2c(cc1Cl)oc1c(Cl)cc(Cl)c(Cl)c12

Out:
0.163
0.204
0.213

----------
Please respond with reported Uterine Wet Weight for every item in the list.
Test system: female rat uterus
Test: Antiestrogenic effect on uterine wet weight, immature female Sprague-Dawley rats (Example 8)
Type: in vivo
Settings: Table 3: compound alone, 50 μmol/kg (17β-estradiol: 2 × 10 μg/rat)
One number for each entry, in % body wt.

Solved entries (count: 3):
| COMPOUND | Uterine Wet Weight (% body wt) |
| --- | --- |
| Cc1cc2oc3cc(Cl)c(Cl)cc3c2cc1Cl [7-Methyl-2,3,-triCDF, 7-methyl-2,3,8-trichlorodibenzofuran] | 0.102 |
| Cc1cc2c(cc1Cl)oc1cc(Cl)c(Cl)cc12 | 0.138 |
| Cc1cc2c(cc1Br)oc1cc(Br)c(Br)cc12 | 0.153 |

Entry Cc1cc2c(cc1Cl)oc1c(Cl)c(Cl)c(Cl)cc12 [8-Methyl-2,3,4,7-tetraCDF, 8-Methyl-2,3,4,7-tetrachlorodibenzofuran] — recorded Uterine Wet Weight = 0.094

----------
Answer each item with its documented ED40-60 for Inhibition, ERn.
Tested on: estrogen receptor (ER)
Assay: Uterine estrogen receptor levels, hydroxyapatite assay (Example 8)
Type: in vivo, female Sprague-Dawley rats
Settings: cotreatment with 17β-estradiol
One number for each entry, in µmol/kg.

In the examples that follow, each entry is paired with its recorded ED40-60 for Inhibition, ERn.
| STRUCTURE | TESTED SYSTEM | ED40-60 for Inhibition, ERn [µmol/kg] |
| --- | --- | --- |
| Cc1cc2c(cc1Cl)oc1cc(Cl)c(Cl)cc12 | estrogen receptor (ER) | 10 |
| CC(C)c1cc(Cl)cc2c1oc1cc(Cl)cc(Cl)c12 | estrogen receptor (ER) | 25 |
| Cc1cc(Cl)cc2c1oc1c(Cl)c(Cl)c(Cl)cc12 | estrogen receptor (ER) | 2 |

Per the records, this compound ( Cc1cc2c(cc1Cl)oc1c(Cl)c(Cl)c(Cl)cc12 ) has ED40-60 for Inhibition, ERn equal to 25

----------
Test system: female rat uterus
Assay: Antiestrogenic effect on uterine wet weight, immature female Sprague-Dawley rats (Example 8)
Type: in vivo
Conditions: 150 μmol/kg + E-2 (2 × 10 μg/rat), run B
Record form. Attribute: Uterine Wet Weight. Fill in for each entry.
One number for each entry, in % body wt.

Below, 3 compounds whose answers are already recorded.
| COMPOUND | Uterine Wet Weight [% body wt] |
| --- | --- |
| CC(C)c1cc(Cl)cc2c1oc1cc(Cl)cc(Cl)c12 [6-i-Propyl-1,3,8-triCDF] | 0.210 |
| CCc1cc(Cl)cc2c1oc1cc(Cl)cc(Cl)c12 [6-Ethyl-1,3,8-triCDF] | 0.226 |
| CCCc1cc(Cl)cc2c1oc1cc(Cl)cc(Cl)c12 [6-n-Propyl-1,3,8-triCDF] | 0.240 |

// compound CC(C)(C)c1cc(Cl)cc2c1oc1cc(Cl)cc(Cl)c12 [6-t-Butyl-1,3,8-triCDF] , assay female rat uterus, Uterine Wet Weight value: 0.247

----------
Please respond with reported Uterine Wet Weight for every item in the list.
Tested on: female rat uterus
Experiment: Antiestrogenic effect on uterine wet weight, immature female Sprague-Dawley rats (Example 8)
Format: in vivo
Details: dose-response, 50 μmol/kg + 17β-estradiol (2 × 10 μg/rat)
One number for each entry, in % body wt.

Some solved cases for reference:
| STRUCTURE | Uterine Wet Weight [% body wt] |
| --- | --- |
| Cc1cc2c(cc1Cl)oc1cc(Cl)c(Cl)cc12 | 0.224 |
| Cc1cc2c(cc1Cl)oc1c(Cl)c(Cl)c(Cl)cc12 | 0.172 |

Hi team, please reply with Uterine Wet Weight for each item in this list.
1. Cc1cc(Cl)cc2c1oc1c(Cl)c(Cl)c(Cl)cc12
2. CCCc1cc(Cl)cc2c1oc1cc(Cl)cc(Cl)c12

Out:
1. 0.158
2. 0.202

----------
Could you please report measured Progesterone Receptor Levels, Nuclear for the items listed next?
Tested on: progesterone receptor (PR)
Assay: Uterine progesterone receptor levels, hydroxyapatite assay (Example 8)
Format: in vivo, female Sprague-Dawley rats
Conditions: Table 2: compound alone, 50 μmol/kg (17β-estradiol: 2 × 10 μg/rat)
One number for each entry, in fmol/mg protein.

| STRUCTURE | TESTED SYSTEM | Progesterone Receptor Levels, Nuclear (fmol/mg protein) |
| --- | --- | --- |
| Cc1cc2c(cc1Cl)oc1c(Cl)cc(Cl)c(Cl)c12 | progesterone receptor (PR) | 303 |
| Cc1cc(Cl)cc2c1oc1cc(Cl)c(Cl)cc12 | progesterone receptor (PR) | 395 |
| Cc1cc(Cl)cc2c1oc1c(Cl)c(Cl)c(Cl)cc12 | progesterone receptor (PR) | 457 |

Kindly consider the entry below.
What the record says about Cc1cc2c(cc1Cl)oc1cc(Cl)cc(Cl)c12 : Progesterone Receptor Levels, Nuclear is 795

----------
System: progesterone receptor (PR)
Experiment: Uterine progesterone receptor levels, hydroxyapatite assay (Example 8)
Type: in vivo, female Sprague-Dawley rats
Details: cotreatment with 17β-estradiol
RECORDED ENDPOINT: ED40-60 for Inhibition, PRn (µmol/kg)
Numbers only, in µmol/kg.

| STRUCTURE | UNIT TAG | ED40-60 for Inhibition, PRn |
| --- | --- | --- |
| Cc1cc(Cl)cc2c1oc1c(Cl)c(Cl)c(Cl)cc12 | µmol/kg | 10 |

Report ED40-60 for Inhibition, PRn for each item below.
1. Cc1cc2c(cc1Cl)oc1c(Cl)c(Cl)c(Cl)cc12
2. CC(C)c1cc(Cl)cc2c1oc1cc(Cl)cc(Cl)c12

Out:
[10, 25]

Value of measured ED40-60 for Inhibition, PRn for the entry Cc1cc2c(cc1Cl)oc1cc(Cl)c(Cl)cc12 : 10

----------
Test system: estrogen receptor (ER)
Test: Uterine estrogen receptor levels, hydroxyapatite assay (Example 8)
Assay type: in vivo, female Sprague-Dawley rats
Settings: 150 μmol/kg + E-2 (2 × 10 μg/rat), run B
RECORDED ENDPOINT: Estrogen Receptor Levels, Nuclear (fmol/mg protein)
Answers are plain numbers, in fmol/mg protein.

| STRUCTURE | TESTED SYSTEM | UNIT TAG | ASSAY VALUE |
| --- | --- | --- | --- |
| CC(C)c1cc(Cl)cc2c1oc1cc(Cl)cc(Cl)c12 | estrogen receptor (ER) | fmol/mg protein | 52.6 |
| CC(C)(C)c1cc(Cl)cc2c1oc1cc(Cl)cc(Cl)c12 | estrogen receptor (ER) | fmol/mg protein | 41.7 |
| CCc1cc(Cl)cc2c1oc1cc(Cl)cc(Cl)c12 | estrogen receptor (ER) | fmol/mg protein | 34.9 |

Now consider a different compound.
Per the record, CCCc1cc(Cl)cc2c1oc1cc(Cl)cc(Cl)c12 has Estrogen Receptor Levels, Nuclear of 33.7

----------
Test system: estrogen receptor (ER)
Test: Uterine estrogen receptor levels, hydroxyapatite assay (Example 8)
Format: in vivo, female Sprague-Dawley rats
Conditions: Table 3: compound alone, 50 μmol/kg (17β-estradiol: 2 × 10 μg/rat)
RECORDED ENDPOINT: Estrogen Receptor Levels, Cytosolic (fmol/mg protein)
Numbers only, in fmol/mg protein.

Please review the following examples before continuing.
| COMPOUND | RECORDED ENDPOINT | ASSAY VALUE |
| --- | --- | --- |
| Cc1cc2c(cc1Cl)oc1cc(Cl)c(Cl)cc12 | Estrogen Receptor Levels, Cytosolic | 113.9 |
| Cc1cc2c(cc1Br)oc1cc(Br)c(Br)cc12 | Estrogen Receptor Levels, Cytosolic | 128.2 |
| Cc1cc2oc3cc(Cl)c(Cl)cc3c2cc1Cl [7-Methyl-2,3,-triCDF, 7-methyl-2,3,8-trichlorodibenzofuran] | Estrogen Receptor Levels, Cytosolic | 72.9 |

Please turn your attention to the following entry.
Lab note: measured Estrogen Receptor Levels, Cytosolic of Cc1cc2c(cc1Cl)oc1c(Cl)c(Cl)c(Cl)cc12 [8-Methyl-2,3,4,7-tetraCDF, 8-Methyl-2,3,4,7-tetrachlorodibenzofuran] was 66.8
